The measurements presented in this section are drawn from ChEMBL document CHEMBL1201862.

system: OVCAR-8; test: NCI tumour cell line growth inhibition, 48 h
Active and inactive are the calls of the source. No stated cut-off is given here; in the data, active = GI50 up to about 1.1 µM and inactive = higher.
Give one outcome, nothing more. List: label 1 for active, label 0 for inactive

Input line: Name the outcome recorded for "CCN(CC)/[N+]([O-])=N/O" in the assay.
Output line: label 0

Input line: Name the outcome recorded for "OCCOCn1nncc1Cn1ncc2c(O)ncnc21" in the assay.
Output line: label 0

Input line: Name the outcome recorded for "COc1cc2c(/C=C3/C(=O)N(C)c4ccc(O)cc43)c(Cl)[nH]c2cc1C" in the assay.
Output line: label 1

Input line: Name the outcome recorded for "CCCC(=O)N[C@@H](Cc1cc(I)c(O)c(I)c1)C(=O)NCCCNCCCCNCCCNC(=O)[C@@H](N)CCCN=C(N)N" in the assay.
Output line: label 0

Input line: Name the outcome recorded for O=C(CC1(O)C(=O)Nc2ccc([N+](=O)[O-])cc21)c1ccncc1 (stereo unspecified) in the assay.
Output line: label 0

Input line: Name the outcome recorded for C=CCOC1OC(CS(=O)(=O)O)C(O)C(O)C1O (stereo unspecified) in the assay.
Output line: label 0

Input line: Name the outcome recorded for "C1CSCCSCCSCCSC1" in the assay.
Output line: label 0

Input line: Name the outcome recorded for "CC1(C)C(=NNC(=S)NN)C(C)(C)C1=NNC(=S)NN" in the assay.
Output line: label 0

Input line: Name the outcome recorded for "Nc1ncnc2ccc(Sc3ccc4ncnc(N)c4c3)cc12" in the assay.
Output line: label 0

Input line: Name the outcome recorded for "O=C1/C(=C/c2cccc([N+](=O)[O-])c2)N=C(c2ccccc2)N1c1nc2c(Cl)cc(Cl)cc2s1" in the assay.
Output line: label 0

From here, focus on the item given below.
Input line: Name the outcome recorded for CC(C)CCCCCCCCCCCCC(=O)NCC(=O)NC1C(C)OC(Nc2[nH]cnc3ncnc2-3)C(O)C1O (stereo unspecified) in the assay.
Output line: label 1
